These measurements were taken from ChEMBL document CHEMBL5058577.

System: U2OS
Assay: Multiplex assay against U2OS
Type: toxicity, cell-based
Details: human, 48 h, 10 µM, compound concentration 10 uM, replicate 2
Could you mark each record condition met if its Population Membrane Permeable-Phenotype (%) falls strictly under 5%, and condition not met if it equals or exceeds it?

Does the reported Population Membrane Permeable-Phenotype (%) of the following compound sit strictly below 5%? O=C1COc2nccc(-c3ccccc3F)c2CN1Cc1cc(C(F)(F)F)cc(C(F)(F)F)c1 condition not met

Does the reported Population Membrane Permeable-Phenotype (%) of the following compound sit strictly below 5%? N#Cc1c(N)nc(SCc2csc(-c3ccc(Cl)cc3)n2)c(C#N)c1-c1ccc(OCCO)cc1 condition not met

Does the reported Population Membrane Permeable-Phenotype (%) of the following compound sit strictly below 5%? O=S(=O)(c1ccccc1)c1cnc2c(N3CCNCC3)cccc2c1 [INTEPIRDINE] condition not met

Does the reported Population Membrane Permeable-Phenotype (%) of the following compound sit strictly below 5%? COc1cc(NC(=O)CCN2CCC(OC(=O)Nc3ccccc3-c3ccccc3)CC2)c(Cl)cc1CNC[C@H](O)c1ccc(O)c2[nH]c(=O)ccc12 condition not met

Does the reported Population Membrane Permeable-Phenotype (%) of the following compound sit strictly below 5%? CCCN1CCC[C@@H]2Cc3n[nH]cc3C[C@H]21.Cl [QUINPIROLE HYDROCHLORIDE] condition not met

Does the reported Population Membrane Permeable-Phenotype (%) of the following compound sit strictly below 5%? CCOc1c2c(c(OCC)c3ncccc13)CN(c1ccc(CS(=O)(=O)NC(=O)Cc3ccccc3OC)cc1C)C2=O condition not met

* * *

Tested on: Fibroblast
Experiment: Multiplex assay against human fibroblast
Type: toxicity, cell-based
Details: 12 h, 1 µM, compound concentration 1 uM, replicate 2
For each entry below, report its Population Healthy Nuclei (%) value.
Numbers only, in %.

>>> test_value("CCOc1c2c(c(OCC)c3ncccc13)CN(c1ccc(CS(=O)(=O)NC(=O)Cc3ccccc3OC)cc1C)C2=O")
42

For every record below, what is its Population Healthy Nuclei (%)?
1. CN1CCN2c3ncccc3Cc3ccccc3C2C1 (stereo not drawn)
2. CC(=O)NCCc1c(Cc2ccccc2)[nH]c2ccccc12
3. COc1cc(C(=O)N(CCCc2ccccc2)Cc2ccc(CC(=O)O)cc2)cc(OC)c1C
4. CCNC1(C(N)=O)CCN(c2ncnc3c2nc(-c2ccccc2Cl)n3-c2ccc(Cl)cc2)CC1
5. Cc1ccccc1C(=O)Nc1ccc(C(=O)N2CCCC(N(C)C)c3ccccc32)cc1.Cl (stereo not drawn)

1: 47; 2: 39; 3: 45; 4: 48; 5: 55

* * *

Test system: Fibroblast
Assay: Multiplex assay against human fibroblast
Assay type: toxicity, cell-based
Conditions: 24 h, 10 µM, compound concentration 10 uM, replicate 1
measured-parameter: Population Tubulin-Different-Phenotype (%)
One number for each entry, in %.

>>> test_value("CNC[C@H](O)c1ccc(O)c(O)c1 [EPINEPHRINE]")
21

For every record below, what is its Population Tubulin-Different-Phenotype (%)?
1. CC(=O)NCCc1c(Cc2ccccc2)[nH]c2ccccc12 [LUZINDOLE]
2. CCOc1c2c(c(OCC)c3ncccc13)CN(c1ccc(CS(=O)(=O)NC(=O)Cc3ccccc3OC)cc1C)C2=O
3. CC(C)(C)c1ccc(S(=O)(=O)Nc2ccc(Cl)cc2C(=O)c2cc[n+]([O-])cc2)cc1 [VERCIRNON]
4. CN1CCN2c3ncccc3Cc3ccccc3C2C1 (stereo not given) [MIRTAZAPINE]

1. 29
2. 19
3. 40
4. 30
